tested on: SK-MEL-5 melanoma; assay: NCI tumour cell line growth inhibition, 48 h
Where a SMILES comes first, the peptide text is derived from it. The star is where a group is joined. Boc = CC(C)(C)OC(=O)*; OBn = c1ccc(CO*)cc1
metric.name: TGI

Jot down TGI (SK-MEL-5 melanoma) of CCOC(=O)C(C)Sc1nnc(COc2ccccc2OC)n1-c1ccccc1 (configuration not stated) .
> 100 µM

Jot down TGI (SK-MEL-5 melanoma) of CC1(C)CC2(C)CC1CC2(O)c1ccccc1 (configuration not stated) .
> 100 µM

Jot down TGI (SK-MEL-5 melanoma) of `COC(=O)[C@@](C)(COC(=O)C(C)(C)C)NC(=O)OC(C)(C)C` .
> 100 µM

Jot down TGI (SK-MEL-5 melanoma) of `CCN1CCN(Cc2ccc(NC(=O)Nc3nc4ccc(Oc5ccnc(C(=O)NC)c5)cc4s3)cc2C(F)(F)F)CC1` .
2.9 µM

Jot down TGI (SK-MEL-5 melanoma) of C=C(C)C1CC/C(C)=C/CC[C@]2(C)O[C@@H]2CCC2=CC1OC2=O (some centres not stated) .
> 100 µM

Jot down TGI (SK-MEL-5 melanoma) of `CCCn1cnc2c(SCC(=O)O)nc(N)nc21` .
> 100 µM

Jot down TGI (SK-MEL-5 melanoma) of NS(=O)(=O)c1ccc(N2N=C3c4ccccc4CC3C2c2cccs2)cc1 (configuration not stated) .
43.5 µM

Jot down TGI (SK-MEL-5 melanoma) of CSc1nc(NC2OC(COC(C)=O)C(OC(C)=O)C(OC(C)=O)C2OC(C)=O)c(N=C(C)C(C)=O)c(=O)[nH]1 (configuration not stated) .
> 100 µM

Jot down TGI (SK-MEL-5 melanoma) of CC(C)(O)C1CC[C@]2(C)[C@H]3CC[C@@H]4[C@@]5(C)CCCC(C)(C)[C@@H]5CC[C@@]4(C)[C@]3(C)CC[C@@H]12 (some centres not stated) .
> 100 µM

Jot down TGI (SK-MEL-5 melanoma) of `O=C(Nc1ccc(F)cc1F)c1cc(Cl)ccc1O` .
2.03 µM

Jot down TGI (SK-MEL-5 melanoma) of C#CCNC(=O)NCCCCC(NC(=O)OCc1ccccc1)C(=O)OCc1ccccc1 (configuration not stated) .
> 100 µM

Jot down TGI (SK-MEL-5 melanoma) of `Cc1c(OCc2ccccc2)c(=O)ccn1CCc1c[nH]c2ccccc12` .
35.3 µM

Jot down TGI (SK-MEL-5 melanoma) of CC(C)CC(NC(=O)OC(C)(C)C)C(=O)NC(CC(=O)OCc1ccccc1)C(=O)OCc1ccccc1 (stereo not drawn) (Boc-Leu-Asp(OBn)-OBn; configuration not given here) .
57.3 µM

Jot down TGI (SK-MEL-5 melanoma) of `COc1cccc(CN(C)c2ccc(CO)c(Cl)c2)c1` .
21.4 µM

Jot down TGI (SK-MEL-5 melanoma) of COc1ccc(C(Cc2ccccc2)C2NC(=S)NC2=O)cc1 (configuration not stated) .
> 25 µM

Jot down TGI (SK-MEL-5 melanoma) of O=NN(CCF)C(=O)NC1CC2CCC1C2 (configuration not stated) .
> 100 µM

Jot down TGI (SK-MEL-5 melanoma) of `CNc1ccc2ncccc2c1[N+](=O)[O-]` .
> 100 µM

Jot down TGI (SK-MEL-5 melanoma) of `COc1cc2ncnc(-n3ncc4cc(NC(=O)Nc5ccc(Cl)c(Cl)c5)ccc43)c2cc1OC` .
3.89 µM

Jot down TGI (SK-MEL-5 melanoma) of `N=C(N)SCCC(=O)CCSC(=N)N` .
> 100 µM

Jot down TGI (SK-MEL-5 melanoma) of `CN(C)c1ccc(/C=C2\N=C(c3ccccc3)N(c3cc(C(F)(F)F)ccc3Cl)C2=O)cc1` .
> 100 µM

Jot down TGI (SK-MEL-5 melanoma) of `O=C(N/C(=C\c1ccc(Br)cc1)c1nc2ccccc2[nH]1)c1ccccc1` .
37 µM

Jot down TGI (SK-MEL-5 melanoma) of CC(=O)OC12c3ccccc3C(c3ccccc31)C1C(=O)N(c3ccccn3)C(=O)C12 (configuration not stated) .
> 100 µM

Jot down TGI (SK-MEL-5 melanoma) of COCC1OC(S(=O)(=O)c2ccccc2)C(O)C(OC)C1OC (configuration not stated) .
> 100 µM

Jot down TGI (SK-MEL-5 melanoma) of O=C1C2=C(C(=O)c3cnccc31)C1C=CC2CC1 (configuration not stated) .
3.85 µM

Jot down TGI (SK-MEL-5 melanoma) of `O=C1Nc2cc([N+](=O)[O-])c(Br)cc2C1=O` .
60.7 µM

Jot down TGI (SK-MEL-5 melanoma) of CCOC(=O)C(NC(=O)CC)(Nc1ccc(S(=O)(=O)Nc2onc(C)c2C)cc1)C(F)(F)F (configuration not stated) .
> 100 µM

Jot down TGI (SK-MEL-5 melanoma) of `[O-][N+]1(CC[N+]2([O-])CCCCC2)CCCCC1` .
> 100 µM

Jot down TGI (SK-MEL-5 melanoma) of CN1N=C(c2ccncc2)OC1c1cccc(C(F)(F)F)c1 (configuration not stated) .
> 100 µM

Jot down TGI (SK-MEL-5 melanoma) of `CS[C@]12[C@@H]3C(=O)N(C)C(=O)[C@@H]3[C@](C)(C(=O)N1C)C(=O)N2c1ccccc1` .
> 100 µM

Jot down TGI (SK-MEL-5 melanoma) of CC(=O)OC1C2CCC3C(C)(O)C4CC(O)C(C)(C)C4(O)C(O)CC13CC2(C)O (configuration not stated) .
> 100 µM

Jot down TGI (SK-MEL-5 melanoma) of CC1CN(S(=O)(=O)c2oc(-c3ccc(Cl)cc3)nc2C#N)CC(C)O1 (configuration not stated) .
5.16 µM

Jot down TGI (SK-MEL-5 melanoma) of `O=Nn1c2ccccc2c2cc([N+](=O)[O-])ccc21` .
> 100 µM

----------
test system: SK-MEL-28 melanoma; experiment: NCI tumour cell line growth inhibition, 48 h
metric.name: TGI

Report TGI for `NNc1cnn(-c2ccccc2)c(=O)c1Cl`
> 100 µM

Report TGI for `c1cc(-c2nnc(SSc3ncnc4nc[nH]c34)o2)ccn1`
> 100 µM

Report TGI for Clc1cccc(N2CCN(CCCN3CCc4c([nH]c5ccccc45)C3c3cccnc3)CC2)c1 (configuration not stated)
20.4 µM

Report TGI for `Cc1cccc2nc3c(=O)[nH]c(=O)nc-3n(C)c12`
> 100 µM

Report TGI for COC(=O)C1C(=O)CC2CCCCC21 (configuration not stated)
> 100 µM

Report TGI for `COc1cccc(/C(Cl)=C(\C=O)c2cccc(OC)c2)c1`
25.5 µM

Report TGI for `CN(C)/C=N\c1ccnc(=O)[nH]1`
> 100 µM

Report TGI for `COc1ccc2c(c1)OCCc1cn[nH]c1-2`
> 100 µM

Report TGI for `[O-]c1ccccc1C=Nc1ccc2c(c1)CCC2.[O-]c1ccccc1C=Nc1ccc2c(c1)CCC2.[O]=[U+2]=[O]`
> 100 µM

Report TGI for COC(=O)C(=O)C(C(=O)C(=O)Nc1cccc([N+](=O)[O-])c1)c1nc2ccc(Cl)cc2[nH]c1=O (configuration not stated)
> 100 µM

Report TGI for `N/C(=N\NS(=O)(=O)c1ccccc1)Oc1ccc(Br)cc1Br`
> 100 µM

Report TGI for `CC[C@@]1(OC(=O)CN)C(=O)OCc2c1cc1n(c2=O)Cc2c-1nc1cc3c(cc1c2CCl)OCO3`
20.5 µM

Report TGI for `Cc1ccc(Oc2ccccc2N)cc1`
80.2 µM

Report TGI for CC(C)(O)C1CC[C@]2(C)[C@H]3CC[C@@H]4[C@@]5(C)CCCC(C)(C)[C@@H]5CC[C@@]4(C)[C@]3(C)CC[C@@H]12 (some centres not stated)
> 100 µM

Report TGI for `CC(C)OP(=O)(OC(C)C)C1=NN(c2ccc([N+](=O)[O-])cc2)C(P(=O)(OC(C)C)OC(C)C)=NN1c1ccc([N+](=O)[O-])cc1`
> 100 µM

Report TGI for `O=C(Sc1c(-c2ccccc2)c(=O)n(-c2ccccc2)c(=S)n1-c1ccccc1)c1cccs1`
> 100 µM

Report TGI for `COc1ccccc1N=Nc1c(O)c(S(=O)(=O)O)cc2cc(S(=O)(=O)O)ccc12`
> 100 µM

Report TGI for `C[Si](C)(C)C(CCCCSc1ccccc1)(Sc1ccccc1)Sc1ccccc1`
> 100 µM

Report TGI for `NS(=O)(=O)c1ccc(N=Nc2c(O)[nH]c3ccc(C(=O)NCc4ccncc4)cc23)cc1`
> 25 µM

Report TGI for `CCOc1ccc(/C(C=O)=C(\Cl)c2ccc(OC)cc2)cc1`
> 100 µM

Report TGI for `Cc1ccc(N(O)C(C)(C)C)cc1`
> 100 µM

Report TGI for `O=c1c2cc(-c3ccccc3)sc2ncn1Cc1ccc(Cl)c(Cl)c1`
> 100 µM

Report TGI for `Cc1ccc(S(=O)(=O)N=NC=C2c3ccccc3N(O)c3ccccc32)cc1`
14.5 µM

Report TGI for COc1ccc(C(Cc2ccccc2)C2NC(=S)NC2=O)cc1 (configuration not stated)
> 25 µM

Report TGI for `Cc1ccc(-c2cc(O)c3nc4ccccc4n3c2)cc1`
> 100 µM

Report TGI for COC(=O)CC(C(C(=O)OCc1ccccc1)C(C)O)N1C(=O)OC(c2ccccc2)C1c1ccccc1 (configuration not stated)
> 100 µM

Report TGI for Oc1ccccc1C1C=C(c2ccccc2)NC(N2CCCCC2)=C1c1nc2ccccc2[nH]1 (configuration not stated)
30.6 µM

Report TGI for CC1(C)C(CCO)CC1n1ccc(=O)[nH]c1=O (configuration not stated)
> 100 µM

Report TGI for NS(=O)(=O)c1ccc(N2N=C3c4ccccc4CC3C2c2cccs2)cc1 (configuration not stated)
> 100 µM

Report TGI for `C1=C/COCc2cc(ccc2OCCN2CCCC2)Nc2nccc(n2)-c2ccc(o2)COC/1`
5.26 µM

Report TGI for `Cc1ncc(C(=O)Nc2ccc(CN3CCN(C)CC3)c(C(F)(F)F)c2)cc1C#Cc1ccc(N)nc1`
1.3 µM

Report TGI for `CNNC(=N\S(=O)(=O)c1cc(C)c(Cl)cc1SCc1ccccc1)/N=C/c1ccc([N+](=O)[O-])s1`
> 100 µM

Report TGI for COC(=O)c1c(CC(Cc2ccc3c(c2)CCCC3)C(=O)OC)ccc2c1CCCC2 (configuration not stated)
> 100 µM

Report TGI for `Nc1ccc(Nc2cc(=O)[nH]c(=O)[nH]2)cc1`
> 100 µM

Report TGI for CC1CN(S(=O)(=O)c2oc(-c3ccc(Cl)cc3)nc2C#N)CC(C)O1 (configuration not stated)
3.38 µM

Report TGI for `CC1(c2cc3c(cc2Br)OCO3)SCCCS1`
> 100 µM

Report TGI for `Cc1ccc(NC2=NCCO2)c2c1CCC2`
> 100 µM

Report TGI for `Cc1cc(C)nc(/C(=N\NC(N)=O)C(=O)Nc2nc3ccc(C)cc3s2)c1`
> 100 µM

Report TGI for `C=C/C(C)=C/C[C@]1(C)[C@H](C)[C@@H](OC(=O)CCC)[C@H](O)[C@@]23C(=C[C@H](OC)C[C@@H]12)[C@@H](OC(=O)CCC)O[C@H]3OC(C)=O`
1.63 µM

Report TGI for `CN(C)c1ccc(/C=C2\N=C(c3ccccc3)N(c3cc(C(F)(F)F)ccc3Cl)C2=O)cc1`
> 100 µM

Report TGI for CCC(C)Oc1nc2c(c(=O)n(C)c(=O)n2C)n1C (configuration not stated)
> 100 µM

Report TGI for `O=Nn1c2ccccc2c2cc([N+](=O)[O-])ccc21`
39.3 µM
